- system: EIF2AK3 (PERK) catalytic domain (amino acids 536-1116) (Homo sapiens (Human), UniProt Q9NZJ5)
- Sequence (Q9NZJ5 536-1116): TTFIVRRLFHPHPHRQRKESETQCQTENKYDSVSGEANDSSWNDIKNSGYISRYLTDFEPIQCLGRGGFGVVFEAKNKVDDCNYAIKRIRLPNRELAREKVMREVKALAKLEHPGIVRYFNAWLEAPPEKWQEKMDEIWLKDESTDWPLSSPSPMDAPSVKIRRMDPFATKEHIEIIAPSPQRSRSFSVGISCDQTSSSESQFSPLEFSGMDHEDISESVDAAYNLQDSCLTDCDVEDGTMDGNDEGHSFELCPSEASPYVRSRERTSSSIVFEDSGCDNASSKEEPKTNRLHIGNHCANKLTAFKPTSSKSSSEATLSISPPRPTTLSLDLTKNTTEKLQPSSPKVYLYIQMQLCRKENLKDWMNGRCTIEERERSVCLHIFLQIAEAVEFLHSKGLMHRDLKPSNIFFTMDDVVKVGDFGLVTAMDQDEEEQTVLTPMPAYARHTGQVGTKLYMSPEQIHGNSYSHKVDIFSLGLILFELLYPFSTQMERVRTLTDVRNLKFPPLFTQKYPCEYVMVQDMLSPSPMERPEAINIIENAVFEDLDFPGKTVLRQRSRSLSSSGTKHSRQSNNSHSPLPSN
- test-protocol: PERK in vitro activity assay (isolated), TR-FRET kinase assay
- condition-description: isolated PERK enzyme, 1.5 μM ATP, GFP-eIF2a substrate; read-out: Biochemical IC50
measured-attribute: IC50

Completed entries (count: 5):
compound: CCc1cc(NC(=O)C(O)c2cc(F)cc(F)c2)ccc1-c1cnc(N)c(C(=O)NC(C)C)c1 (single isomer, unassigned) [Example 39]
result: 101 to 250 nM
//
compound: Cc1cc(NC(=O)C(O)c2cc(F)cc(F)c2)ccc1-c1cnc(N)c(C(=O)NC(C)(C)C)c1 (single isomer, unassigned) [Example 17]
result: 251 to 500 nM
//
compound: Cc1cc(NC(=O)C(N)c2ccccc2)ccc1-c1cnc(N)c(C(=O)NC(C)C)c1 (stereo not shown) [Example 7]
result: 1000 to 2000 nM
//
compound: Cc1cc(NC(=O)N(C)c2ccccc2)ccc1-c1cnc(N)c(C(=O)NC(C)C)c1
result: 1000 to 2000 nM
//
compound: CCc1cc(NC(=O)C(O)c2cc(F)cc(F)c2)ccc1-c1cnc(N)c(C(=O)NC(C)C)n1 (stereo not shown) [Example 152]
result: 101 to 250 nM

IC50 reported for this compound COC1CC(NC(=O)c2cc(-c3ccc(NC(=O)C(O)c4cc(F)cc(F)c4)cc3C)cnc2N)C1 (stereo not shown) [Example 28] : 1 to 25 nM

IC50 reported for this compound CC(C)NC(=O)c1cc(-c2ccc(NC(=O)C(O)c3cc(F)cc(F)c3)cc2F)cnc1N (stereo not shown) [Example 32] : 1 to 25 nM
